Target: human GPR17 short isoform (Homo sapiens)
Sequence (Q13304 29-367): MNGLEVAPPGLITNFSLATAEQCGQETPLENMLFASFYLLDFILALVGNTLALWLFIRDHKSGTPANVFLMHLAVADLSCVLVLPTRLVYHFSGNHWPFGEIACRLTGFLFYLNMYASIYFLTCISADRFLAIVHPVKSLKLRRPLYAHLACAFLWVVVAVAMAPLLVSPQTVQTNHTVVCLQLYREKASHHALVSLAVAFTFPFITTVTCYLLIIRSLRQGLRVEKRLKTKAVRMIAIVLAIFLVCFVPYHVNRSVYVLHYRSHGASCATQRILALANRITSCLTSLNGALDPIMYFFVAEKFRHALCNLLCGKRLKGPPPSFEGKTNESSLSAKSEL
Test: GPR17 cAMP assay (hGPR17 cAMP)
Settings: CHO-K1 cells stably expressing human GPR17 short isoform; antagonist mode with EC80 of MDL29,951, forskolin 15 μM, TR-FRET cAMP
pIC50: −log10 of the molar value.
reported property: pIC50

compound	subject of test	pIC50
COc1nc(NS(=O)(=O)c2c[nH]c(-c3ccsn3)c2)nc(OC)c1OCC(F)F [Example 11]	human GPR17 short isoform (Homo sapiens)	6.85

A: COc1nc(NS(=O)(=O)c2c[nH]c(-c3ccccn3)c2)nc(OC)c1OCC(F)F [Example 19]
B: COc1nc(NS(=O)(=O)c2c[nH]c(-c3ncccc3F)c2)nc(OC)c1OC(F)F [Example 5]
Data request: // task: argmin of pIC50 over [ A , B ] Answer by quoting the chosen item's label.
Data returned: B
(B: 6.49, A: 6.74)

a: COc1nc(NS(=O)(=O)c2c[nH]cc2Cc2ccccc2)nc(OC)c1OCC(F)F [Example 30]
b: [2H]C([2H])(c1cccc(F)c1)c1c[nH]cc1S(=O)(=O)Nc1nc(OC)c(OCC(F)F)c(OC)n1 [Example 29]
Data request: Endpoint returns the identifier whose pIC50 is numerically larger, either a or b . Please indicate the selected item by its label.
Data returned: b
(b: 6.02, a: 5.73)

Cited source: patent US20250346580A1
